Reported IC50 is given for each of the following compounds.
# Test system: AGO1522 cells
# Assay Comment: MTT cell viability assay, AGO1522
# Type: cell-based, human
# Details: Homo sapiens, Skin fibroblast, 48 h, read-out: IC50 AGO1522 48 hours
Field: numeric (µM). Do not append units.

>  <Compound>
O=c1[nH]c(O)c(C2C([N+](=O)[O-])=C3NCCN3c3nc4cc(Cl)ccc4cc32)c(=O)[nH]1 (centres unmarked)

>  <Reported Value>
22.9

$$$$

Read the next record carefully.
stdin: Tell me the measured IC50 of CC(=O)O[C@H]1C(=O)[C@@]2(C)[C@H]([C@H](OC(=O)c3ccccc3)[C@]3(O)C[C@H](OC(=O)[C@H](O)[C@@H](NC(=O)c4ccccc4)c4ccccc4)C(C)=C1C3(C)C)[C@]1(OC(C)=O)CO[C@@H]1C[C@@H]2O [Paclitaxel, reference compound] , please.
stdout: 25.8

* * *

Measured IC50, listed per entry.
# Tested on: U-87MG cells
# Assay Comment: MTT cell viability assay, U-87MG
# Type: cell-based
# Details: Homo sapiens, 48 h, read-out: IC50 U-87MG 48 hours
Reply numerically in µM, unit not repeated.

>  <Compound>
CC(=O)O[C@H]1C(=O)[C@@]2(C)[C@H]([C@H](OC(=O)c3ccccc3)[C@]3(O)C[C@H](OC(=O)[C@H](O)[C@@H](NC(=O)c4ccccc4)c4ccccc4)C(C)=C1C3(C)C)[C@]1(OC(C)=O)CO[C@@H]1C[C@@H]2O [Paclitaxel, reference compound]

>  <IC50 / µM>
42.2

$$$$

Here is another compound to look at.
stdin: Can you look up the measured IC50 of O=c1[nH]c(O)c(C2C([N+](=O)[O-])=C3NCCN3c3nc4cc(Cl)ccc4cc32)c(=O)[nH]1 (centres unmarked) for me?
stdout: 16.3
